# Tested on: Fibroblast
# TEST_PROTOCOL: Cytotoxicity in human Fibroblast cells assessed as reduction in cell viability incubated for 72 hrs by MTT assay
# Type: functional, cell-based
READOUT_LABEL: pIC50
Give bare numbers, as −log10 of the molar value.

INPUT: For N[C@H]1CCN(C(=O)c2cc3c(O)c4c(c(O)c3s2)C(=O)c2ccccc2C4=O)C1 , what is its reported pIC50?
OUTPUT: 5.85

Let's switch to this compound now.
INPUT: For COc1cccc2c1C(=O)c1c(O)c3c(c(O)c1C2=O)C[C@@](O)(C(=O)CO)C[C@@H]3O[C@H]1C[C@H](N)[C@H](O)[C@H](C)O1 [DOXORUBICIN] , what is its reported pIC50?
OUTPUT: 6.70

====

# Tested on: HCT-116
# TEST_PROTOCOL: Cytotoxicity in human HCT-116 cells assessed as reduction in cell viability incubated for 72 hrs by MTT assay
# Format: functional, cell-based
# RECORDED_CONDITIONS: HCT-116, 72 h
READOUT_LABEL: pIC50
Answers are plain numbers, as −log10 of the molar value.

INPUT: For N[C@H]1CCN(C(=O)c2cc3c(O)c4c(c(O)c3s2)C(=O)c2ccccc2C4=O)C1 , what is its reported pIC50?
OUTPUT: 6.30
